# credit: patent US11691989B2

Kindly state pIC50 for each of the entries shown.
System: NCI-H929 cells
Experiment: Cell viability assay (NCI-H929 cells), CCK-8
Format: cell-based
Settings: Homo sapiens, NCI-H929, 24 h, 5% FBS
Quick note: pIC50 values are minus log10 of concentrations in mol/L.

Which value of pIC50 has been reported for Cc1c(C(=O)O)n2c3ccc(Cl)c(c13)-c1c(nn(C)c1C)CN(S(=O)(=O)c1cnn(C)c1)Cc1cc(n(C)n1)CSc1cc(c3ccc(F)cc3c1)OCCC2 in the records? 6.16

How about this molecule: Cc1c(C(=O)O)n2c3ccc(Cl)c(c13)-c1c(nn(C)c1C)CN(C(=O)c1nccn1C)Cc1cc(n(C)n1)CSc1cc(c3ccc(F)cc3c1)OCCC2 6.11

Try Cc1nn(C)c2c1-c1c(Cl)ccc3c1c(C)c(C(=O)O)n3CCCOc1cc(cc3cc(F)ccc13)SCc1cc(nn1C)CSC2 next. 7.33

Ok, now COCCn1nc(C)c2c1CSCc1cc(n(C)n1)CSc1cc(c3ccccc3c1)OCCCn1c(C(=O)O)c(C)c3c-2c(Cl)ccc31 6.55

One more molecule: Cc1c2c(nn1C)CSCc1cc(n(C)n1)CSc1cc(c3ccccc3c1)OCCCc1c(C(=O)O)n(C)c3c-2c(Cl)ccc13 [AZD5991, reference compound] 7.33

Please give the result for COCCn1nc2c(c1C)-c1c(Cl)ccc3c1c(C)c(C(=O)O)n3CCCOc1cc(cc3ccccc13)SCc1cc(nn1C)CSC2 too. 7.17

// same read-out, input: CNC(=O)Cn1nc2c(c1C)-c1c(Cl)ccc3c1c(C)c(C(=O)O)n3CCCOc1cc(cc3ccccc13)SCc1cc(nn1C)CSC2 5.73

Next entry: CNS(=O)(=O)N1Cc2cc(n(C)n2)CSc2cc(c3ccc(F)cc3c2)OCCCn2c(C(=O)O)c(C)c3c(c(Cl)ccc32)-c2c(nn(C)c2C)C1 6.57

Another molecule: Cc1c2c(nn1C)CSCc1cc(n(C)n1)CSc1cc(c3ccc(F)cc3c1)OCCCn1c(C(=O)O)c(F)c3c-2c(Cl)ccc31 6.35

Now the same for Cc1c(C(=O)O)n2c3ccc(Cl)c(c13)-c1c(nn3c1COCC3)CSCc1cc(n(C)n1)CSc1cc(c3ccccc3c1)OCCC2 6.78

Repeat with Cc1c(C(=O)O)n2c3ccc(Cl)c(c13)-c1c(nn(C)c1C)CN(S(=O)(=O)C(F)(F)F)Cc1cc(n(C)n1)CSc1cc(c3ccc(F)cc3c1)OCCC2 7.60

Please do the same for Cc1c(C(=O)O)n2c3ccc(Cl)c(c13)-c1c(nn(C)c1C)CN(Cc1ncco1)Cc1cc(n(C)n1)CSc1cc(c3ccc(F)cc3c1)OCCC2 as well. 7.06

* * *

Tested on: NCI-H929 cells
Assay: Cell viability assay (NCI-H929 cells), CCK-8
Type: cell-based
Conditions: 5% FBS, 24 hrs
measured_attribute: pIC50
Please note pIC50 is a logarithmic value: minus log10 of concentration in mol/L. Answer with that number alone.

Which measured pIC50 value corresponds to Cc1c(C(=O)O)n2c3ccc(Cl)c(c13)-c1c(nn(C)c1C)CSCc1cc(n(C)n1)CSc1cc(c3ccc(F)cc3c1)OCCC2 [Cpd. No. 14] ? 7.55

Entry Cc1c(C(=O)O)n2c3ccc(Cl)c(c13)-c1c(nn(C)c1C)CSCc1cc(n(C)n1)CSc1cc(c3ccc(F)cc3c1)OCCC2 (atropisomer, axis not shown) [Cpd. No. 15] please 7.72

Lookup Cc1c(C(=O)O)n2c3ccc(Cl)c(c13)-c1c(nn(C)c1C)CSCc1cc(n(C)n1)CSc1cc(c3ccccc3c1)OCCC2 [Cpd. No. 5] 7.48

Now consider Cc1c(C(=O)O)n2c3ccc(Cl)c(c13)-c1c(nn(C)c1C)CSCc1cc(n(C)n1)CSc1cc(c3ccccc3c1)OCCC2 (atropisomer, axis not shown) [Cpd. No. 6] . 7.41
